Molecular target: human TPI (expressed in yeast) (Homo sapiens)
Construct: gene TPI1; human TPI expressed in transgenic yeast lacking endogenous TPI1; extract, activity normalized to total cellular protein; homodimer
Experiment: TPI activity assay, PEP titration
Format: cell-based
Readout kind: IC50 (µM)
Answers are plain numbers, in µM.

Input: Any idea what its IC50 is? The compound is C=C(OP(=O)(O)O)C(=O)O
Output: 531

---

Target: yeast TPI (endogenous) (Saccharomyces cerevisiae, UniProt P00942)
Construct: endogenous full-length enzyme in yeast extract, activity normalized to total cellular protein; homodimer
Sequence (P00942 2-248): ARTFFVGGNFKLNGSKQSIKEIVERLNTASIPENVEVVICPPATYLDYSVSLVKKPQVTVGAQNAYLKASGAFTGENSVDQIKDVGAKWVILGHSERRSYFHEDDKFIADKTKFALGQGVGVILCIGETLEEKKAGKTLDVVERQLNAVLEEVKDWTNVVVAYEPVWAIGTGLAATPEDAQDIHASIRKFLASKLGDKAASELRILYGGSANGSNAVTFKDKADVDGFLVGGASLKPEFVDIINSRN
Assay: TPI activity assay, PEP titration; Ki by Cheng-Prusoff equation
Settings: substrate gly3p, yeast extract
Readout kind: pKi
Answers are plain numbers, as −log10 of the molar value.

Input: # query: pKi of entry C=C(OP(=O)(O)O)C(=O)O [PEP]
Output: 3.41

---

Target: human TPI (expressed in yeast) (Homo sapiens, UniProt P60174)
Construct: human TPI expressed in transgenic yeast lacking endogenous TPI1; extract, activity normalized to total cellular protein; homodimer
Sequence (P60174 2-249): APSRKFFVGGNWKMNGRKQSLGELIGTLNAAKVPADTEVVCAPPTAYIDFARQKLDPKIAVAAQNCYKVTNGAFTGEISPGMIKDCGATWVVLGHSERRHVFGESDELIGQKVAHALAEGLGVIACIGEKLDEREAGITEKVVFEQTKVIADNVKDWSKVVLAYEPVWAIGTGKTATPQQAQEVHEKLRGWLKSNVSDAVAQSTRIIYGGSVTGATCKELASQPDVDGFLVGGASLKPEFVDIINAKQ
Assay: TPI activity assay, PEP titration; Ki by Cheng-Prusoff equation
Readout kind: pKi
Answers are plain numbers, as −log10 of the molar value.

Input: For human TPI (expressed in yeast) (Homo sapiens, UniProt P60174), provide pKi of C=C(OP(=O)(O)O)C(=O)O [PEP] please.
Output: 3.79

---

Molecular target: rabbit TPI (purified from muscle) (Oryctolagus cuniculus, UniProt P00939)
Construct: native enzyme purified from rabbit muscle; homodimer
Sequence (P00939 2-249): as the sequence (P60174 2-249) above, with Q19K, S20N, G26T, A118S counted along it
Assay: TPI activity assay, PEP titration
Readout kind: IC50 (µM)
Answers are plain numbers, in µM.

Input: What IC50 value was documented for this molecule, C=C(OP(=O)(O)O)C(=O)O [PEP] ?
Output: 515
